B1: Ankyrin repeat and SOCS box protein 14, residues 532 to 572; numbered along this chain, A6NK59 (parent)
chain: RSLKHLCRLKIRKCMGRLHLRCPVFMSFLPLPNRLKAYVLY

- Variants of: B1
- assay-info: abundance fitness (aPCA) (normalised: wild type 0, dead -1); higher = more abundant; growth selection in yeast, the domain comes from the species named
- conditions: Homo sapiens
Classify as follows. Reported abundance fitness greater than or equal to -0.1: Satisfied. Reported abundance fitness below: Not satisfied.

Example entries begin here.
* RSLKHLCRLKIRKCMGRLHLRCPVFMSFLPLPNRLKAYVLT [Y41T] | Satisfied
* RSLKHLCRLKIRKCMGNLHLRCPVFMSFLPLPNRLKAYVLY [R17N] | Not satisfied

In plain terms: is recorded abundance fitness at least -0.1 for RSLKHLCRLKIRKCMGLLHLRCPVFMSFLPLPNRLKAYVLY [R17L] ?
Satisfied

Cool, now RSLKHLCRLKIRKCMGRLPLRCPVFMSFLPLPNRLKAYVLY [H19P]
Not satisfied

Can you check RSLKHLCRLKIRKCMGRLHLRCPVFMSFLPLPNRLFAYVLY [K36F] next?
Satisfied
